The measurements presented in this section are drawn from the supplement of paper PMC9170038.

System: MS2 coat protein
ASSAY NOTES: apparent KD of MS2 coat protein; designed switch direction (-1 OFF switch, 1 ON switch): -1; higher = weaker reporter binding
SETTINGS: Eterna round: R95; input ligand: FMN 200 uM
In this section, each of the sequences is paired with its reported apparent KD of MS2 coat protein.

Before answering, review these 5 worked examples.
SEQ TEXT	TESTED ON	apparent KD of MS2 coat protein
GAGGUGUUAGGAUAUCGGAGAUGGAGACCAACGGGAUGAGCCGAGAAGGAACAUGAGGAUCACCCAUGUAGGUG [JR_Exclu4_Sub032] (puzzle: Exclusion 4)	MS2 coat protein	345 nM
AAGAAACAUGAGGAUCACCCAUGUGAGGAUAUGGAAAAGAAAAGAAAAGAAAGAAGAAUCAGAAGGCACAAAGG [salish99-ex1_r3_020] (puzzle: Exclusion 1)	MS2 coat protein	40.8 nM
AAGAAACAUGAGGAUCACCCAUGUGAGGAUAUGAGUAAGAAAAGAAAAGAAAGAAGAGUCAGAAGGCACAAAGG [salish99-ex1_r3_060] (puzzle: Exclusion 1)	MS2 coat protein	49.5 nM
AGGGCUGCUCAGGAUAUCCGUAAAAGCCGAAAAGGAGAAGGGAGCACAUGAGGAUCACCCAUGUGAUCCUAAAA [Orbemaored] (puzzle: Exclusion 6)	MS2 coat protein	28 nM
AAUAAAACAUAGGAUAUCGAAUUUAUUAUUUAACGAGAAGGAUGAACAUGAGGAUCACCCAUGUGGUAUCAUGG [Mat - Exclusion 6 - JL Mod - D24] (puzzle: Exclusion 6)	MS2 coat protein	258 nM

Exam item: Specify reported apparent KD of MS2 coat protein for the sequence shown: AGUAGAUCUACGCUUGCGUGGAUCUGCGAGGCAGGUGUAACAUGAGGAUCACCCAUGUCCUCAUUUGUUCGUCUUAU [JL turnoff v2 99.19] (puzzle: Sensor v3, turn-off variant 2)
Marked response: 379 nM

Exam item: Specify reported apparent KD of MS2 coat protein for the sequence shown: UCAUACGAUGAGGAUAUCUCAGUUAAAGUAUUUAGAGAAGGCGUUACAUGAGGAUCACCCAUGUUUAUGGGCAU [Ex-6 Malc#7] (puzzle: Exclusion 6)
Marked response: 178 nM

Exam item: Specify reported apparent KD of MS2 coat protein for the sequence shown: GAAAAGAUAGGAUAUACAAGAAGAAAAGAAAAGAAAAGAAAACAUGAGGAUCACCCAUGUAGAAGGAUCAAAAG [Default title] (puzzle: Exclusion 2)
Marked response: 15 nM

Exam item: Specify reported apparent KD of MS2 coat protein for the sequence shown: ACAACAAGCUUUUUGAACGUAGAACAUGCAGCUCUAGAAACAUGAGGAUCACCCAUGUAAGCCAGUUAGAUAGGUGA [JR_SV3TOV2_Sub067] (puzzle: Sensor v3, turn-off variant 2)
Marked response: 76.1 nM

Exam item: Specify reported apparent KD of MS2 coat protein for the sequence shown: CUCGGGAGUCAGGAUAUCGGCACUUAUCAAUCACGAGAAGGGACGACAUGAGGAUCACCCAUGUGGGAAAAGAA [Ersoar] (puzzle: Exclusion 6)
Marked response: 252 nM

Exam item: Specify reported apparent KD of MS2 coat protein for the sequence shown: GUUAAACAUGAGGAUCACCCAUGUAAGGAUAUGCUGAGGUAGAGAUGAAGUGAAUGAAGCAGAAGGUACAAAUG [Mat - Mod of JL D64] (puzzle: Exclusion 1)
Marked response: 51.5 nM
